log10 IC50 listing for selected compounds.
- SYSTEM: wild-type RET kinase (Homo sapiens, UniProt P07949)
- Construct: purchased Reaction Biology Corporation (contract assay; enzyme is the CRO's)
- Sequence (P07949 29-1114): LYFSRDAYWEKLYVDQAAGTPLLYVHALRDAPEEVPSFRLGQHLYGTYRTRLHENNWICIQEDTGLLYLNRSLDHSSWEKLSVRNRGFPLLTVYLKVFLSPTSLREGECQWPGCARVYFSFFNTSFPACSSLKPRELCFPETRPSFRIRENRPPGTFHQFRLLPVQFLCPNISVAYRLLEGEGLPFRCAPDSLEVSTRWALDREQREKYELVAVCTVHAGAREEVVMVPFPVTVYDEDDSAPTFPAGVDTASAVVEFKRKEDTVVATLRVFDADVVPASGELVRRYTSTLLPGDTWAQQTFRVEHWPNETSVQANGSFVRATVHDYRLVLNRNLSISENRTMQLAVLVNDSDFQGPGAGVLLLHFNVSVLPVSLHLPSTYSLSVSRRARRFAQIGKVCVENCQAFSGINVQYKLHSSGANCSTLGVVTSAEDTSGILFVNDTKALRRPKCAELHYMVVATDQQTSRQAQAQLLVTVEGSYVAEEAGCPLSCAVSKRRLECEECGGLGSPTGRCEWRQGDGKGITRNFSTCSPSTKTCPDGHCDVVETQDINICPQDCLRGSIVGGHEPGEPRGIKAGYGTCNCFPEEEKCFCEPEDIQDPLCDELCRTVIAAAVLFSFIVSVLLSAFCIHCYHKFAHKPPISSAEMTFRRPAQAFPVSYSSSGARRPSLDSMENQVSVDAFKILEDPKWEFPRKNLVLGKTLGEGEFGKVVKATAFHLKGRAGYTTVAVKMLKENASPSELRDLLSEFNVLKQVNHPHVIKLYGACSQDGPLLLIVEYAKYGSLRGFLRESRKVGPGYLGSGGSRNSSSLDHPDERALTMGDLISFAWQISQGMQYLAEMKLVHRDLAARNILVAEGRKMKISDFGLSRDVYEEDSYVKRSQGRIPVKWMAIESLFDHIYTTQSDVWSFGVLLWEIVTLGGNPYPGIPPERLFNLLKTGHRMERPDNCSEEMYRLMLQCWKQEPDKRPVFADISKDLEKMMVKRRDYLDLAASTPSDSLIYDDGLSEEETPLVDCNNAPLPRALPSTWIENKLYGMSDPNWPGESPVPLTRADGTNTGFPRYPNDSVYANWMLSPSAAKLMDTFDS
- ASSAY: Biochemical IC50 of wild-type RET kinase (33P-ATP filter binding, Reaction Biology)
- PARTICULARS: wild-type RET kinase; ATP 1 μM; 33P-ATP filter binding; read-out: Biochemical IC50 RET
Scale: log10; quantity: IC50; unit before log: nM

COc1ccc(N=S2(=O)CCN(c3ccc(-c4nc(-c5cnn(C)c5)cn5ncc(C#N)c45)cn3)CC2)cn1 :: -0.17

stdin: Field request: log10 IC50 | item: Cn1cc(-c2cc(-c3ccc(N4CCC(N=[S@](C)(=O)c5ccccc5)CC4)nc3)c3c(C#N)cnn3c2)cn1
stdout: -0.04

stdin: Field request: log10 IC50 | item: Cn1cc(-c2cc(-c3ccc(N4CCC(N=[S@@](C)(=O)c5ccccc5)CC4)nc3)c3c(C#N)cnn3c2)cn1
stdout: 0.17

stdin: Field request: log10 IC50 | item: Cn1cc(-c2cn3ncc(C#N)c3c(-c3ccc(N4CCC(N=[S@@](C)(=O)c5ccccc5)CC4)nc3)n2)cn1
stdout: 0.61

stdin: Field request: log10 IC50 | item: COc1ccc(CN=S2(=O)CCN(c3ccc(-c4cc(OCC(C)(C)O)cn5ncc(C#N)c45)cn3)CC2)cn1
stdout: 0.56

stdin: Field request: log10 IC50 | item: COc1ccc(N=S2(=O)CCN(c3ccc(-c4cc(OCC(C)(C)O)cn5ncc(C#N)c45)cn3)CC2)cn1
stdout: 0.22

stdin: Field request: log10 IC50 | item: Cn1cc(-c2cc(-c3ccc(N4CCS(=N)(=O)CC4)nc3)c3c(C#N)cnn3c2)cn1
stdout: -0.07

stdin: Field request: log10 IC50 | item: CC(C)(O)COc1cc(-c2ccc(N3CCS(=O)(=NC4CCNCC4)CC3)nc2)c2c(C#N)cnn2c1
stdout: 1.26

stdin: Field request: log10 IC50 | item: CC(C)(O)COc1cc(-c2ccc(N3CCC(N=[S@@](C)(=O)c4ccccc4)CC3)nc2)c2c(C#N)cnn2c1
stdout: 1.15

stdin: Field request: log10 IC50 | item: CC(C)(O)COc1cc(-c2ccc(N3CCC(N=[S@](C)(=O)c4ccccc4)CC3)nc2)c2c(C#N)cnn2c1
stdout: 0.79
